Values of IC50 for Fibroblast growth factor receptor 3 (Homo sapiens, UniProt P22607), collected from a number of published sources:
measured.endpoint: IC50 (nM)

# smi, measured.endpoint, limit.qualifier, assay.value
rows = [
    ("COc1cc(Nc2ccc3ncc(-c4cnn(C5CCN(C(=O)C6CN(C(=O)/C=C/CN(C)C)C6)CC5)c4)nc3c2)cc(OC)c1", "IC50", "=", 23),
    ("COc1cc(OC)c(Cl)c(-c2ncc3c(-c4ccc5c(c4)CN([C@H]4CC[C@@H](O)CC4)C5=O)n[nH]c3n2)c1Cl", "IC50", "<", 100),
    ("COc1cc(OC)c(F)c(N2Cc3cnc(N)c(C)c3N(c3nnn(C)n3)C2=O)c1F", "IC50", "<", 100),
    ("CCN(CC)CCNC(=O)c1c(C)[nH]c(/C=C2\\C(=O)Nc3cccc(-c4cccc(F)c4)c32)c1C", "IC50", "=", 21),
    ("C=CC(=O)NCc1cc2c(cn1)CN(c1c(F)c(OC)cc(OC)c1F)C(=O)N2CC(C)C", "IC50", ">", 200),
    ("CNC(=O)c1cc(CCc2cnc(Nc3cnn([C@H]4CCN(C)C4)c3)nc2)c(F)c(OC)c1", "IC50", "=", 15),
    ("N#CCC1(n2cc(-c3cnn4c(-c5cccc(NC(=O)NCC(F)(F)F)c5)cnc4c3)cn2)CN(C(=O)N2CCCC2)C1", "IC50", "<", 10),
]

====

# merged literature set: pIC50 with Fibroblast growth factor receptor 3 (Homo sapiens, UniProt P22607)
pIC50: −log10 of the molar value.
measured.endpoint: pIC50

# smi, system.tested, measured.endpoint, assay.value
records = [
    ("Cn1cc(C(=O)N2CCC(n3cc(-c4cnn5c(-c6cccc(NC(=O)NCC(F)(F)F)c6)cnc5c4)cn3)CC2)cn1", "Fibroblast growth factor receptor 3 (Homo sapiens, UniProt P22607)", "pIC50", "> 8.00"),
    ("CNC(=O)c1cc(F)c(F)c(-c2cnc3cc(-c4cnn(C5CCN(C(=O)N(C)C)CC5)c4)c(O[C@H]4CCOC4)nn23)c1", "Fibroblast growth factor receptor 3 (Homo sapiens, UniProt P22607)", "pIC50", "> 8.00"),
    ("C=CC(=O)N1CC(Nc2ncc3cc(-c4c(Cl)c(OC)cc(OC)c4Cl)ccc3n2)C1", "Fibroblast growth factor receptor 3 (Homo sapiens, UniProt P22607)", "pIC50", 8.10),
    ("NC(=O)c1c(-c2c(Cl)cccc2Cl)nc2c3cc(-c4ccc(C(=O)N5CCOCC5)cc4)cnc3ccn12", "Fibroblast growth factor receptor 3 (Homo sapiens, UniProt P22607)", "pIC50", "> 10.00"),
    ("NC(=O)c1c(-c2c(Cl)cccc2Cl)nc2c3cc(-c4cnn(C5CC5)c4)cnc3ccn12", "Fibroblast growth factor receptor 3 (Homo sapiens, UniProt P22607)", "pIC50", "> 10.00"),
    ("COCCNc1cc(NC(=O)N(C)c2ccc(CN3CCCC3=O)c(C=O)n2)ncc1C#N", "Fibroblast growth factor receptor 3 (Homo sapiens, UniProt P22607)", "pIC50", "< 5.00"),
    ("CNC(=O)c1cc(CCc2cnc(Nc3cnn(C(C)C)c3)nc2)c(F)c(OC)c1", "Fibroblast growth factor receptor 3 (Homo sapiens, UniProt P22607)", "pIC50", 8.10),
]

====

Let's look at some IC50 data for Fibroblast growth factor receptor 3 (Homo sapiens, UniProt P22607) that I collected from the literature.
measured.endpoint: IC50

# compound, measured.endpoint, assay.value
measured = [
    ("COCCNc1cc(NC(=O)N2CCCc3cc(CO)c(C=O)nc32)ncc1C#N", "IC50", "> 10000 nM"),
    ("C=CC(=O)Nc1cc(OCC(F)(F)F)ccc1C(=O)Nc1cc(CCc2cc(OC)cc(OC)c2)n[nH]1", "IC50", "2.4 nM"),
    ("O=C(c1ccc(-c2cnc3ccn4c(CO)c(-c5c(Cl)cccc5Cl)nc4c3c2)cc1)N1C[C@@H]2C[C@H]1CO2", "IC50", "1 to 5 nM"),
    ("C[C@H]1O[C@@H](c2ccncc2NC(=O)c2nc(-c3ccccc3)cnc2N)C[C@@H](N)[C@]1(C)O", "IC50", "320 nM"),
    ("COc1cc(OC)c(Cl)c(-c2cc3[nH]nc(-c4cnn(CC(=O)N5CCC(N(C)C)C5)c4)c3cn2)c1Cl (stereo not drawn)", "IC50", "< 100 nM"),
    ("CC(C)C1C(=O)N(C)CCN1c1ccc2[nH]nc(-c3cc4cnccc4s3)c2n1 (stereo not drawn)", "IC50", "< 10 nM"),
    ("CC(C(=O)N1CCOCC1)c1ccc(-c2cnn3c(-c4cccc(NC(=O)NCC(F)(F)F)c4)cnc3c2)cc1 (stereo not drawn)", "IC50", "< 10 nM"),
    ("COc1cc(C)cc2cc(-c3c(CNC4CC4)cn4ncnc(N)c34)sc12", "IC50", "3.6 nM"),
    ("COc1cc(OC)c(F)c(N2Cc3cnc(N)c(C)c3N(C)C2=O)c1F", "IC50", "< 100 nM"),
    ("COC[C@@H](C)Oc1cc(NC(=O)N2CCCc3cc(CN4CCN(C)CC4=O)c(C=O)nc32)ncc1C#N", "IC50", "> 10000 nM"),
    ("CNC(=O)c1cc(-c2cnn3cc(-c4cnn(CCOC)c4)c(N[C@H]4CCOC4)nc23)c(F)c(C(F)F)c1", "IC50", "< 10 nM"),
    ("COc1cc(OC)c(F)c(N2Cc3cnc(N)c(C4=CCOCC4)c3N(C)C2=O)c1F", "IC50", "< 100 nM"),
    ("COc1cccc2cc(-c3c(CN4CCNC(=O)C4)cn4ncnc(N)c34)sc12", "IC50", "3.1 nM"),
    ("O=C(NCC(F)(F)F)Nc1cccc(-c2cnc3cc(-c4cnn(C5CCN(C(=O)C6CCOC6)CC5)c4)cnn23)c1 (stereo not drawn)", "IC50", "< 10 nM"),
    ("C=CC(=O)NCc1cc2c(cn1)CN(c1c(F)c(OC)cc(OC)c1F)C(=O)N2c1ccncc1", "IC50", "> 200 nM"),
    ("CCN1CCN(c2ccc(Nc3ccc(CCc4cc(C(=O)NOC)cc(OC)c4C)cn3)cc2)CC1", "IC50", "8 nM"),
    ("COCCNc1cc(Nc2ccnn2-c2ccc(-c3cnn(C)c3)c(C=O)n2)ncc1C(F)(F)F", "IC50", "> 10000 nM"),
    ("N#Cc1cncc(Cn2cc(-c3cnc4ccn5c(C(N)=O)c(-c6c(Cl)cccc6Cl)nc5c4c3)cn2)c1", "IC50", "< 0.1 nM"),
    ("COCCOc1c(N)ncc2c1N(C)C(=O)N(c1c(F)c(OC)cc(OC)c1F)C2", "IC50", "< 100 nM"),
    ("Cc1[nH]c(/C=C2\\C(=O)Nc3cccc(-c4ccc(Br)cc4)c32)c(C)c1C(=O)N1C[C@@H](C)N[C@@H](C)C1", "IC50", "87 nM"),
    ("O=C(NCC(F)(F)F)Nc1cccc(-c2cnc3cc(-c4cnn(C5CCN(C(=O)CC6CCCC6)CC5)c4)cnn23)c1", "IC50", "< 10 nM"),
    ("Cc1nc2c3cc(-c4cnn(C5CCOCC5)c4)cnc3ccn2c1C(N)=O", "IC50", "10 to 50 nM"),
    ("CNC(=O)c1cc(CCc2cnc(Nc3cnn(C4CCC4)c3)nc2)c(Cl)c(OC)c1", "IC50", "11 nM"),
    ("CNC(=O)c1cc(-c2cnn3cc(-c4cnn(C5CCC5)c4)c(O[C@H]4CCOC4)nc23)cc(S(C)(=O)=O)c1", "IC50", "≥ 200 nM"),
    ("COc1cc(C)cc2cc(-c3c(CN4CCCC4)cn4ncnc(N)c34)sc12", "IC50", "1 nM"),
    ("CCn1cc(Nc2ccc(OCc3cc(C(=O)NC)cc(OC)c3F)cn2)cn1", "IC50", "227 nM"),
    ("CC(c1ccnc(C#N)c1)n1cc(-c2cnc3ccn4c(C(N)=O)c(-c5c(Cl)cccc5Cl)nc4c3c2)cn1 (stereo not drawn)", "IC50", "0.1 to 1 nM"),
    ("OCc1c(-c2c(Cl)cccc2Cl)nc2c3cc(-c4cnn(Cc5ccnc(C(F)(F)F)c5)c4)cnc3ccn12", "IC50", "1 to 5 nM"),
    ("[2H]C([2H])([2H])NC(=O)c1cc(-c2cnn3cc(-c4ccc(CN5C[C@H]6C[C@@H]5CO6)nc4)c(O[C@H]4CCOC4)nc23)c(F)c(C(F)F)c1", "IC50", "< 10 nM"),
    ("COc1cc(OC)c(Cl)c(-c2cc3[nH]nc(-c4ccc(OCCN(C)C)cc4)c3cn2)c1Cl", "IC50", "< 100 nM"),
]
